target: T1, extracellular domain (ECD) of human epidermal growth factor receptor 2 (HER2) (Homo sapiens, UniProt P04626); assay: SPR; BIAcore T200; HER2/ECD immobilised on a CM5 chip by amine coupling to 1000 RU; IgG flowed in PBST (0.05% Tween 20) at 30 uL/min; regeneration 10 mM glycine pH 1.5; global fit to a 1:1 binding model; conditions: both partners purified
T1 construct: human epidermal growth factor receptor 2 (HER2), extracellular domain; also called HER2/ECD
# reported koff; entries follow

binder | koff (s⁻¹)
GH2-13 IgG (antibody, V domains shown, source: HEK293-F, transient transfection, purified (Protein A, Superdex 200)) VH: EVQLVESGGGLVQPGGSLRLSCAASGFTISDGGIHWVRQAPGKGLEWVAGIWPYWGYTSYADSVKGRFTISADTSKNTAYLQMNSLRAEDTAVYYCARFDNNWVGNMDYWGQGTLVTVSS VL: DIQMTQSPSSLSASVGDRVTITCRASQDVYFGVAWYQQKPGKAPKLLISGTTSLYSGVPSRFSGSGSGTDFTLTISSLQPEDFATYYCQQYGSYPITFGQGTKVEIK | 0.00818
GH2-59 IgG (antibody, V domains shown, source: HEK293-F, transient transfection, purified (Protein A, Superdex 200)) VH: EVQLVESGGGLVRPGGSLRLSCAASGFTIGDWYIHWVRQAPGKGLEWVAGIGPYWGYTSYADSVKGRFTISADTSKNTAYLQMNSLRAEDTAVYYCARFVGDVWHDMDYWGQGTLVAVSS VL: DIQMTQSPSSLSASVGDRVTITCRASQDVSGGVAWYQQKPGKAPKLLISWTGSLYSGVPSRFSGSGSGTDFTLTISSLQPEDFATYYCQQWSDFPITFGQGTKVEIK | 0.000288
GH2-72 IgG (antibody, V domains shown, source: HEK293-F, transient transfection, purified (Protein A, Superdex 200)) VH: EVQLVESGGGLVQPGGSLRLSCAASGFTISNGGIHWVRQAPGKGLEWVAYIWPSGGYTFYADSVKGRFTISADTSKNTAYLQMNSLRAEDTAVYYCARFFNNDWIGMDYWGQGTLVTVSS VL: DIQMTQSPSSLSASVGDRVTITCRASQDVGYFVAWYQQKPGKAPKLLISGTTWLYSGVPSRFSGSGSGTDFTLTISSLQPEDFATYYCQQYSNWPLTFGQGTKVEIK | 10.9

The values you see were collected from paper PMC5378893.
